Test system: T-47D breast
assay_info: NCI tumour cell line growth inhibition, 48 h
Assignment: determine reported TGI for the given compounds.
Answers are plain numbers, in µM.

# lookup: TGI of O=[N+]([O-])c1ccc(N(CCO)CCO)c2c1no[n+]2[O-]
5.46

# lookup: TGI of C[C@]12CC[C@H]3[C@@H](C[C@@H]4SC(Nc5cccc(F)c5)=N[C@@]45CC(=O)CC[C@]35C)[C@@H]1CCC2=O
6.95

# lookup: TGI of CCCCc1ccc(Nc2nc(Cl)c3[nH]cnc3n2)cc1
37.2

Further cases:
# lookup: TGI of N#Cc1ccc(-n2cnc(NC(=O)[C@H]3CCN(C#N)C3)c2)cc1
6.86
